Data provenance: PubChem BioAssay AID2060899

# System: 565726-208-R1-J5-PDC complex spheroids, growth inhibition
# Method: Anticancer human tumor 565726-208-R1-J5-PDC patient-derived pancreatic adenocarcinoma cell line growth inhibition [RAS]
# Setup Conditions: curve of first compound; second compound 0.1 µM
pIC50: −log10 of the molar value.
Attribute Measured: pIC50

// known answers, use as guide
compound="CC1(C)CCC(Nc2ncc(C(F)(F)F)c(-c3c[nH]c4c(P(C)(C)=O)c(C#N)ccc34)n2)CN1 (stereo not given) + C=CC(=O)N1CCN(c2nc(OCC3CCCN3C)nc3c(F)c(-c4nc(N)cc(C)c4C(F)(F)F)c(Cl)cc23)C(C)C1" attribute_measured=pIC50 measured=8.24
compound="CCc1c2c(nc3ccc(O)cc13)-c1cc3c(c(=O)n1C2)COC(=O)[C@]3(O)CC + C=CC(=O)N1CCN(c2nc(OCC3CCCN3C)nc3c(F)c(-c4nc(N)cc(C)c4C(F)(F)F)c(Cl)cc23)C(C)C1" attribute_measured=pIC50 measured=8.26

I. CC1(C)CCC(Nc2ncc(C(F)(F)F)c(-c3c[nH]c4c(P(C)(C)=O)c(C#N)ccc34)n2)CN1 (stereo not given) + C#Cc1c(F)ccc2cc(O)cc(-c3ncc4c(N5CC6CCC(C5)N6)nc(OCC56CCCN5CC(F)C6)nc4c3F)c12
II. Nc1ccn(C2OC(CO)C(O)C2(F)F)c(=O)n1 (stereo not given) + C=CC(=O)N1CCN(c2nc(OCC3CCCN3C)nc3c(F)c(-c4nc(N)cc(C)c4C(F)(F)F)c(Cl)cc23)C(C)C1
III. CCC(CC)c1cc(NC2CCC(N)C2)n2nccc2n1 (stereo not given) + C=CC(=O)N1CCN(c2nc(OCC3CCCN3C)nc3c(F)c(-c4nc(N)cc(C)c4C(F)(F)F)c(Cl)cc23)C(C)C1
Query string: Please give the order of these compounds when sorted by pIC50, largest value leading. Output the labels ranked as instructed.
Result string: I, II, III
(I: 8.18, II: 6.64, III: 5.80)

* * *

# System: 565726-208-R1-J5-PDC complex spheroids, growth inhibition
# Method: Anticancer human tumor 565726-208-R1-J5-PDC cell line growth inhibition [RAS];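 also: spheroids exposed to compounds for seven days before readout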;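 as to viability, T/C: 100% = DMSO vehicle control viability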
# Setup Conditions: second compound 0.00316 µM; first compound 1 µM; stronger effect = lower value
Measured viability, T/C, listed per entry.
Number only, in %; omit the unit.

compound="CC(Nc1ccc2c(c1)OCCn1cc(N3C(=O)OCC3C(F)F)nc1-2)C(N)=O (centres undefined) + C=CC(=O)N1CCN(c2nc(OCC3CCCN3C)nc3c(F)c(-c4nc(N)cc(C)c4C(F)(F)F)c(Cl)cc23)C(C)C1" readout_units=% measured=67.5

Query string: If you can, please state the reported viability, T/C value of CC1(O)CCCC1n1c(=O)c(C(F)F)cc2cnc(NC3CCN(S(C)(=O)=O)CC3)nc21 (centres undefined) + C=CC(=O)N1CCN(c2nc(OCC3CCCN3C)nc3c(F)c(-c4nc(N)cc(C)c4C(F)(F)F)c(Cl)cc23)C(C)C1 .
Result string: 77.8

Query string: If you can, please state the reported viability, T/C value of C[C@@H](NC(=O)c1ncnc(N)c1Cl)c1ncc(C(=O)Nc2cc(C(F)(F)F)c(Cl)cn2)s1 + C=CC(=O)N1CCN(c2nc(OCC3CCCN3C)nc3c(F)c(-c4nc(N)cc(C)c4C(F)(F)F)c(Cl)cc23)C(C)C1 .
Result string: 98.3

Query string: If you can, please state the reported viability, T/C value of CCN1CCN(Cc2ccc(Nc3ncc(F)c(-c4cc(F)c5nc(C)n(C(C)C)c5c4)n3)nc2)CC1 + C=CC(=O)N1CCN(c2nc(OCC3CCCN3C)nc3c(F)c(-c4nc(N)cc(C)c4C(F)(F)F)c(Cl)cc23)C(C)C1 .
Result string: 119
